From: patent US20220048991A1

test-system: T1, recombinant ILT2 (human) (human, UniProt Q8NHL6 24-461)
T1 construct: also called recombinant ILT2 peptide; ILT2 protein
T1 sequence (Q8NHL6 24-461 limits assumed): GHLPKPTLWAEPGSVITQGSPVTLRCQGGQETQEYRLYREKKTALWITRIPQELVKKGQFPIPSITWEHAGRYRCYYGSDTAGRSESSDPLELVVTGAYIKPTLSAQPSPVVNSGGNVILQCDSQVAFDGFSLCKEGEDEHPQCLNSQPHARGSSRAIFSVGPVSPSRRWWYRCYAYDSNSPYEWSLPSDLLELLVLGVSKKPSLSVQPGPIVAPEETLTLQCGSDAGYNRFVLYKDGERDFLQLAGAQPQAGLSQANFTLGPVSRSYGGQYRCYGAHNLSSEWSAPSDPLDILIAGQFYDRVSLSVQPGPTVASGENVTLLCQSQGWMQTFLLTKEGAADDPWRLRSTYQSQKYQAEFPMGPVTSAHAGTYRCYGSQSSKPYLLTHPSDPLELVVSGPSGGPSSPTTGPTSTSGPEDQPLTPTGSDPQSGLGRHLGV
experimental-details: SPR (Biacore T200), HEK EBNA supernatants on recombinant ILT2 peptide
Label key: Condition met means koff under 0.008 s⁻¹; Condition not met means koff of 0.008 s⁻¹ or more.

Problem: hey, is koff for humanized 15G8 VH3/Vk1 (antibody, IgG4, V domains shown, Humanized IgG4 (S228P, L235E), kappa; tested as supernatant of transiently transfected HEK EBNA cells) VH: DVQLQGSGPGLVKPSETLSLTCSVTGYSITSGYYWNWIRQPPGKGLEWMGYISYDGSNNYNPSLKNRITISRDTSKNQFSLKLSSVTAADTATYYCAHGYSYYYAMDAWGQGTTVTVSS VL: DIQMTQSTSSLSASVGDRVTITCRTSQDISNYLNWYQQKPGKAVKLLISYTSRLHSGVPSRFSGSGSGTDYTLTISSLQQEDFATYFCQQGNTLPTFGQGTKLEIK lower than 0.008 s⁻¹ or not?
Result: Condition met

Problem: hey, is koff for humanized 15G8 VH1/Vk2 (antibody, IgG4, V domains shown, Humanized IgG4 (S228P, L235E), kappa; tested as supernatant of transiently transfected HEK EBNA cells) VH: DVQLQGSGPGLVKPSETLSLTCSVTGYSITSGYYWNWIRQFPGKKLEWMGYISYDGSNNYNPSLKNRITISRDTSKNQFSLKLNSVTAADTATYYCAHGYSYYYAMDAWGQGTSVTVSS VL: DIQMTQSPSSLSASVGDRVTITCRTSQDISNYLNWYQQKPGKAVKLLISYTSRLHSGVPSRFSGSGSGTDYTLTISSLQPEDFATYFCQQGNTLPTFGQGTKLEIK lower than 0.008 s⁻¹ or not?
Result: Condition met

Problem: hey, is koff for 15G8-44 (humanized 15G8, VH4/Vk4) (antibody, IgG4, V domains shown, Humanized IgG4 (S228P, L235E), kappa) VH: QVQLQGSGPGLVKPSETLSLTCSVTGYSITSGYYWNWIRQPPGKGLEWMGYISYDGSNNYNPSLKNRVTISRDTSKNQFSLKLSSVTAADTATYYCAHGYSYYYAMDAWGQGTTVTVSS VL: DIQMTQSPSSLSASVGDRVTITCRTSQDISNYLNWYQQKPGKAPKLLISYTSRLHSGVPSRFSGSGSGTDYTLTISSLQPEDFATYFCQQGNTLPTFGQGTKLEIK lower than 0.008 s⁻¹ or not?
Result: Condition not met

Problem: hey, is koff for humanized 15G8 VH3/Vk3 (antibody, IgG4, V domains shown, Humanized IgG4 (S228P, L235E), kappa; tested as supernatant of transiently transfected HEK EBNA cells) VH: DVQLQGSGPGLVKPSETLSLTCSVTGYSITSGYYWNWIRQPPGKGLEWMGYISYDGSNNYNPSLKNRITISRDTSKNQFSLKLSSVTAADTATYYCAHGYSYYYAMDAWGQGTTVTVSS VL: DIQMTQSPSSLSASVGDRVTITCRTSQDISNYLNWYQQKPGKAVKLLISYTSRLHSGVPSRFSGSGSGTDYTLTISSLQPEDFATYYCQQGNTLPTFGQGTKLEIK lower than 0.008 s⁻¹ or not?
Result: Condition met

Problem: hey, is koff for humanized 15G8 VH4/Vk3 (antibody, IgG4, V domains shown, Humanized IgG4 (S228P, L235E), kappa; tested as supernatant of transiently transfected HEK EBNA cells) VH: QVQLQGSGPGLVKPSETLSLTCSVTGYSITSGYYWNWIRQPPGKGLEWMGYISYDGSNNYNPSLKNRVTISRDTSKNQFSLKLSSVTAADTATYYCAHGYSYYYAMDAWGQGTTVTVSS VL: DIQMTQSPSSLSASVGDRVTITCRTSQDISNYLNWYQQKPGKAVKLLISYTSRLHSGVPSRFSGSGSGTDYTLTISSLQPEDFATYYCQQGNTLPTFGQGTKLEIK lower than 0.008 s⁻¹ or not?
Result: Condition not met

Problem: hey, is koff for 15G8-53 (humanized 15G8, VH5/Vk3) (antibody, human IgG4 S228P, kappa, V domains shown, Humanized IgG4 (S228P, L235E), kappa) VH: QVQLQGSGPGLVKPSETLSLTCTVTGYSITSGYYWNWIRQPPGKGLEWIGYISYDGSNNYNPSLKNRVTISRDTSKNQFSLKLSSVTAADTATYYCAHGYSYYYAMDAWGQGTTVTVSS VL: DIQMTQSPSSLSASVGDRVTITCRTSQDISNYLNWYQQKPGKAVKLLISYTSRLHSGVPSRFSGSGSGTDYTLTISSLQPEDFATYYCQQGNTLPTFGQGTKLEIKR lower than 0.008 s⁻¹ or not?
Result: Condition met

Problem: hey, is koff for humanized 15G8 VH1/Vk4 (antibody, IgG4, V domains shown, Humanized IgG4 (S228P, L235E), kappa; tested as supernatant of transiently transfected HEK EBNA cells) VH: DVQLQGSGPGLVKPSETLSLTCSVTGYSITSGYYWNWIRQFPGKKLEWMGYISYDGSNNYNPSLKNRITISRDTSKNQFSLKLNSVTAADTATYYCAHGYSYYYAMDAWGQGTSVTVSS VL: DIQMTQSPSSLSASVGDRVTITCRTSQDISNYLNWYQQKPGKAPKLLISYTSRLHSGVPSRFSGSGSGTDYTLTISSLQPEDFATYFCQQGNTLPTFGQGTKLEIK lower than 0.008 s⁻¹ or not?
Result: Condition not met

Problem: hey, is koff for humanized 15G8 VH4/Vk2 (antibody, IgG4, V domains shown, Humanized IgG4 (S228P, L235E), kappa; tested as supernatant of transiently transfected HEK EBNA cells) VH: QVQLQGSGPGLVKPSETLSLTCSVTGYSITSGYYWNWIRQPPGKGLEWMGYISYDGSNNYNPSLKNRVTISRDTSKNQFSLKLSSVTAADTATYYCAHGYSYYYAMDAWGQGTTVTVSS VL: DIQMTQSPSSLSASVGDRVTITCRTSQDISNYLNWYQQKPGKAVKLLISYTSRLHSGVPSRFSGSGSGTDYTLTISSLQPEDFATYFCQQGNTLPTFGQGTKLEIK lower than 0.008 s⁻¹ or not?
Result: Condition met

Problem: hey, is koff for humanized 15G8 VH5/Vk2 (antibody, IgG4, V domains shown, Humanized IgG4 (S228P, L235E), kappa; tested as supernatant of transiently transfected HEK EBNA cells) VH: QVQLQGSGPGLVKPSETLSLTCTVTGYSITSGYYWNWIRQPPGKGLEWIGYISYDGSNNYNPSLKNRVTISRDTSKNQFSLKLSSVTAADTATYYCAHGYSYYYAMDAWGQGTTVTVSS VL: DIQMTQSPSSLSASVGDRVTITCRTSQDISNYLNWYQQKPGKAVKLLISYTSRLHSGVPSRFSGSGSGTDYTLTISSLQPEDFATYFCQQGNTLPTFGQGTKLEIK lower than 0.008 s⁻¹ or not?
Result: Condition not met
